- Tested Target: T1, bacterially produced human IL-6 (Homo sapiens, UniProt P05231)
- T1 construct: His
- T1 sequence (P05231 30-212): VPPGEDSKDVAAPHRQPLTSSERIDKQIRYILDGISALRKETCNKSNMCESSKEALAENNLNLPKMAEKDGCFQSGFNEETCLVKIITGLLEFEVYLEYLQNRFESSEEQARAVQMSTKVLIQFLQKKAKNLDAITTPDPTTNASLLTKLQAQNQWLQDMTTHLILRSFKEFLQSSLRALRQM
- Procedure Summary: Surface plasmon resonance (Biacore), bacterially produced human IL-6 coated on CM5 chip
- Format: binding
- Measurement Context: bact; periplasmic fractions, 29B11 chain shuffled
Measurement Label: ka (M⁻¹ s⁻¹)
Give the value, in units of M⁻¹ s⁻¹, as a plain number.

Task item: Give recorded ka. 48C10: 29B11 chain shuffled Fab, periplasmic fraction (antibody, listed as Lama glama, V domains shown) VH: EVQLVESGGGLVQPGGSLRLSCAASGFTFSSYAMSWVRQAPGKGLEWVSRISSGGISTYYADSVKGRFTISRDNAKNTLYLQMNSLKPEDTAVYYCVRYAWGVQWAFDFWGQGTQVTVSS VL: AQSVLTQPPSVSGSPGQTVTISCAGTSEDVGYGNYVSWYQQLPGMAPKLLIYDVNKRASGIADRFSGSKSGNTASLTISGLQSEDEADYYCASYRRTIDNIFGGGTHLTVLG
Reply: 262000

Task item: Identify measured ka corresponding to 47C2 (R4): 29B11 chain shuffled Fab, periplasmic fraction (antibody, listed as Lama glama, V domains shown) VH: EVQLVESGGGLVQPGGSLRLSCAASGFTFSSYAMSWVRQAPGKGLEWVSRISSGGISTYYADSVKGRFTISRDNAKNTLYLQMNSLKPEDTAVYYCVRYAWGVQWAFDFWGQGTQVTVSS VL: ALSYDLTQPPSVSGSPGKTVTISCAGTSSDVGYGNYVSWYQQLPGMAPKILIYDVNKRASGIADRFSGSKSGNTASLTISGLQSEDEADYYCASYRRGETIVFGGGTHLTVLG
Reply: 1.12e+06
